Source: ChEMBL document CHEMBL3751755

molecular target: Aromatase (Homo sapiens)
Sequence (P11511 whole entry): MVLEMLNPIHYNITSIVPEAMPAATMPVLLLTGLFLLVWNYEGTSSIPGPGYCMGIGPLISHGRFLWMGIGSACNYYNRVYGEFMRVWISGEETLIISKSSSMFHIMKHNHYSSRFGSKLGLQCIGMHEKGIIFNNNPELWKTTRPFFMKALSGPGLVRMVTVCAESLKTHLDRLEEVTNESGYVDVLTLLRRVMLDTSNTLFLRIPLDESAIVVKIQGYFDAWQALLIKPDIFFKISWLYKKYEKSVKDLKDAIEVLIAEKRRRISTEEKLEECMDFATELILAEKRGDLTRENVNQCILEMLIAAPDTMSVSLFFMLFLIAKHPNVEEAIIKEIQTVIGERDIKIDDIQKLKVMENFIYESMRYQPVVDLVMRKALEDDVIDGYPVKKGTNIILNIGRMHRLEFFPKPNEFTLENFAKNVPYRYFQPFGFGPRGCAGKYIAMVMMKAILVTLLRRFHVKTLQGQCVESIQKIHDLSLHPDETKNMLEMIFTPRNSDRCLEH
pKi: −log10 of the molar value.
Decision: pKi compared against 8; not below it gives satisfied, below it gives not satisfied.

Worked examples, 3 molecules total:
C[C@]12CCC(=O)C=C1C=C(c1ccccc1)[C@@H]1[C@@H]2CC[C@]2(C)C(=O)CC[C@@H]12 | not satisfied
C[C@]12CCCC=C1CC[C@@H]1[C@@H]2CC[C@]2(C)C(=O)[C@H](Br)C[C@@H]12 | not satisfied
CCSC1=C2CC[C@@H]3[C@H](CC[C@]4(C)C(=O)CC[C@@H]34)[C@@]2(C)CCC1=O | not satisfied

## Input Quick check: does C[C@]12CCC(=O)C=C1[C@@H]1[C@H]([C@@H]3[C@@H]2CC[C@]2(C)C(=O)CC[C@@H]32)C1(F)F have pKi greater than or equal to 8?
## Output satisfied

## Input Quick check: does C[C@]12CCC(=O)C=C1C=C(Cc1ccccc1)[C@@H]1[C@@H]2CC[C@]2(C)C(=O)CC[C@@H]12 have pKi greater than or equal to 8?
## Output not satisfied
